Please respond with reported Maximum absorption peak for every item in the list.
experiment: Detection of the absorption peak of the fluorescent dyes (UV-visible spectrophotometer, after standing at different temperatures); format: physicochemical; settings: methanol/ethylene glycol; given with the synthesis example
All answers are understood in nm, so give the number only.

Q) Endpoint output: Maximum absorption peak of `CC[n+]1c(/C=C/C=C2\C=CN(CCO)c3ccccc32)sc2ccc(Cl)cc21` . Value?
A) 640

Q) Endpoint output: Maximum absorption peak of `OCCN1C=C/C(=C\C=C\c2sc3ccccc3[n+]2CCO)c2ccc(Br)cc21` . Value?
A) 638

Q) Endpoint output: Maximum absorption peak of `CC[n+]1c(/C=C/C=C2\C=CN(CCO)c3ccccc32)sc2ccc(Br)cc21` . Value?
A) 640

Q) Endpoint output: Maximum absorption peak of `OCCN1C=C/C(=C\C=C\c2sc3ccc(Cl)cc3[n+]2CCO)c2ccccc21` . Value?
A) 638

Q) Endpoint output: Maximum absorption peak of `CCN1C=C/C(=C\C=C\c2sc3ccccc3[n+]2CCO)c2ccc(Cl)cc21` . Value?
A) 639

Q) Endpoint output: Maximum absorption peak of `CCN1C=C/C(=C\C=C\c2sc3ccccc3[n+]2CCOC(C)=O)c2ccc(Cl)cc21` . Value?
A) 639

###

assay: Detection of the absorption peak of the fluorescent dyes (UV-visible spectrophotometer, after standing at different temperatures); assay type: physicochemical; details: after standing at 20° C. for 48 hours, methanol/ethylene glycol (50:50 vol/vol), light-proof
metric_name: Maximum absorption peak of the compounds disclosed
Value and unit, in that order.

Q) Endpoint output: Maximum absorption peak of the compounds disclosed of `OCCN1C=C/C(=C\C=C\c2sc3ccccc3[n+]2CCO)c2ccc(Br)cc21` . Value?
A) 638 nm

Q) Endpoint output: Maximum absorption peak of the compounds disclosed of `OCCN1C=C/C(=C\C=C\c2sc3ccc(Cl)cc3[n+]2CCO)c2ccccc21` . Value?
A) 638 nm

Q) Endpoint output: Maximum absorption peak of the compounds disclosed of `CCN1C=C/C(=C\C=C\c2sc3ccccc3[n+]2CCO)c2ccc(Cl)cc21` . Value?
A) 639 nm

Q) Endpoint output: Maximum absorption peak of the compounds disclosed of `CC[n+]1c(/C=C/C=C2\C=CN(CCO)c3ccccc32)sc2ccc(Br)cc21` . Value?
A) 640 nm

Q) Endpoint output: Maximum absorption peak of the compounds disclosed of `CCN1C=C/C(=C\C=C\c2sc3ccccc3[n+]2CCOC(C)=O)c2ccc(Cl)cc21` . Value?
A) 639 nm

###

assay: Detection of the absorption peak of the fluorescent dyes (UV-visible spectrophotometer, after standing at different temperatures); format: physicochemical; conditions: after standing at 40° C. for 48 hours, methanol/ethylene glycol (50:50 vol/vol), light-proof
Please respond with reported Maximum absorption peak of the compounds disclosed for every item in the list.
All answers are understood in nm, so give the number only.

Q) Endpoint output: Maximum absorption peak of the compounds disclosed of `CC[n+]1c(/C=C/C=C2\C=CN(CCO)c3ccccc32)sc2ccc(Br)cc21` . Value?
A) 640

Q) Endpoint output: Maximum absorption peak of the compounds disclosed of `OCCN1C=C/C(=C\C=C\c2sc3ccccc3[n+]2CCO)c2ccc(Br)cc21` . Value?
A) 638

Q) Endpoint output: Maximum absorption peak of the compounds disclosed of `CCN1C=C/C(=C\C=C\c2sc3ccccc3[n+]2CCO)c2ccc(Cl)cc21` . Value?
A) 639

Q) Endpoint output: Maximum absorption peak of the compounds disclosed of `CCN1C=C/C(=C\C=C\c2sc3ccccc3[n+]2CCOC(C)=O)c2ccc(Cl)cc21` . Value?
A) 639

Q) Endpoint output: Maximum absorption peak of the compounds disclosed of `OCCN1C=C/C(=C\C=C\c2sc3ccc(Cl)cc3[n+]2CCO)c2ccccc21` . Value?
A) 638
